# credit: patent US5827715A

molecular target: heat resistant trehalose phosphorylase (Geobacillus stearothermophilus); construct: heat resistant trehalose phosphorylase which Bacillus stearothermophilus SK-1 found by the present inventors produces; made in house; host or cells: Bacillus stearothermophilus SK-1 (FERM BP-5594), the producing strain itself; assay: Substrate specificity of heat resistant trehalose phosphorylase (phosphorolysis reaction, glucose formed); format: biochemical, Bacillus stearothermophilus SK-1; conditions: phosphorolysis reaction with the substance as substrate, heat resistant trehalose phosphorylase
Sequence (Q8GRC3 whole entry, change not shown): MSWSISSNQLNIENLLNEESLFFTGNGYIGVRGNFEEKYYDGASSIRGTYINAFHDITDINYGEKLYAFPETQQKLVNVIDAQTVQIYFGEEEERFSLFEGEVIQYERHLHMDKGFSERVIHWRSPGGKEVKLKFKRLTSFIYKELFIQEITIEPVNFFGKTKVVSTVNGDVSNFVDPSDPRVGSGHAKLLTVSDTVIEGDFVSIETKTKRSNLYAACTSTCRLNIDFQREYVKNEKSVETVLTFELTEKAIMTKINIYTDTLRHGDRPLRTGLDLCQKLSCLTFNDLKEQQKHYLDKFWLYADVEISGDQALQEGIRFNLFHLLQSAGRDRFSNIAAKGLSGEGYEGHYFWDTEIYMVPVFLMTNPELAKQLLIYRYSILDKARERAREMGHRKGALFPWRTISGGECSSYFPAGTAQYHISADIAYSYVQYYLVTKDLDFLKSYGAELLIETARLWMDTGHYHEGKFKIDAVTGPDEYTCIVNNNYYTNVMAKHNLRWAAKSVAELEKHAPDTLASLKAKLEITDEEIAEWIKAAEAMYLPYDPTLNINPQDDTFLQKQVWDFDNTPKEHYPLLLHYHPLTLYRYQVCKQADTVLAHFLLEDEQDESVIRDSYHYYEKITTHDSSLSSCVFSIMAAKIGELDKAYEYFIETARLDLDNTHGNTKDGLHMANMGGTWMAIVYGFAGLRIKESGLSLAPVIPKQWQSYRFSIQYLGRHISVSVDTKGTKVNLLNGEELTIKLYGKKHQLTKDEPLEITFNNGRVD
readout.label: formation of glucose

| compound | meas.value |
| --- | --- |
| O=[N+]([O-])c1ccc(O[C@H]2O[C@H](CO)[C@@H](O)[C@H](O)[C@H]2O)cc1 [D - glucosideyl - α, p-nitrophenyl-α-D-glucoside] | scarcely observed |
| O=[N+]([O-])c1ccc(O[C@@H]2O[C@H](CO)[C@@H](O)[C@H](O)[C@H]2O)cc1 [D - glucosideyl - β, p-nitrophenyl-β-D-glucoside] | scarcely observed |
| OC[C@H]1O[C@H](OC[C@H]2OC(O)[C@H](O)[C@@H](O)[C@@H]2O)[C@H](O)[C@@H](O)[C@@H]1O (stereo partly drawn) | scarcely observed |

###

molecular target: heat resistant maltose phosphorylase (Bacillus sp. RK-1, UniProt Q84IX5); assay: Substrate specificity of heat resistant maltose phosphorylase (phosphorolysis reaction, glucose formed); type: biochemical; conditions: phosphorolysis reaction with the substance as substrate, heat resistant maltose phosphorylase
Sequence (Q84IX5 entry or part of it, change not shown): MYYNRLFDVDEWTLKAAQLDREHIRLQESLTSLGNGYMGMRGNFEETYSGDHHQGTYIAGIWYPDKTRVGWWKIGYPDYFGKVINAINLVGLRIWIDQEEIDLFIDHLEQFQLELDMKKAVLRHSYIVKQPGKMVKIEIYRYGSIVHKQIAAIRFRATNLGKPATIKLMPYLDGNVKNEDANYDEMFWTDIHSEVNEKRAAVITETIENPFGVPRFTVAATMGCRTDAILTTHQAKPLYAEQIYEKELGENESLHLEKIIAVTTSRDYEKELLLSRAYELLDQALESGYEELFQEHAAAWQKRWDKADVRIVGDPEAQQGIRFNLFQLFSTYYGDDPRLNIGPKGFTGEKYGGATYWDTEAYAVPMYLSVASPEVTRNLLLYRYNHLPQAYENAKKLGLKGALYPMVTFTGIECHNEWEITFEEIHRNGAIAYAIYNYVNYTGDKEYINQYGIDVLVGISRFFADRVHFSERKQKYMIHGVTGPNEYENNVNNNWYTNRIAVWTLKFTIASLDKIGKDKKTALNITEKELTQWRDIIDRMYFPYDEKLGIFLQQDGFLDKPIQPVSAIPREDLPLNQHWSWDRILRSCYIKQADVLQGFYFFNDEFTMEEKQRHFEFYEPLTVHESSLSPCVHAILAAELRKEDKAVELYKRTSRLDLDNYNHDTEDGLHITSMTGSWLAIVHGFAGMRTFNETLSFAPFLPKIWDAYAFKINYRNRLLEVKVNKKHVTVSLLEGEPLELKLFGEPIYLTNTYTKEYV

| compound | formation of glucose |
| --- | --- |
| O=[N+]([O-])c1ccc(O[C@H]2O[C@H](CO)[C@@H](O)[C@H](O)[C@H]2O)cc1 [D - glucosideyl - α, p-nitrophenyl-α-D-glucoside] | scarcely observed |
| O=[N+]([O-])c1ccc(O[C@@H]2O[C@H](CO)[C@@H](O)[C@H](O)[C@H]2O)cc1 [D - glucosideyl - β, p-nitrophenyl-β-D-glucoside] | scarcely observed |
| OC[C@H]1O[C@@H](O[C@H]2O[C@H](CO)[C@@H](O)[C@H](O)[C@H]2O)[C@H](O)[C@@H](O)[C@@H]1O [Neotrehalose] | scarcely observed |

###

Biological target: heat resistant maltose phosphorylase (Bacillus sp. RK-1)
Test: Inhibitor test on heat resistant maltose phosphorylase activity
Format: biochemical
Settings: maltose phosphorylase activity with 1 mM inhibitor; no addition = 100
Experimental: The enzymological properties of the heat resistant maltose phosphorylase of the invention are as follows. As the heat resistant maltose phosphorylase,one obtained in Example 1 and prepared from Bacillus sp. RK-1 was used. In this connection, maltose phosphorylase activity was assayed according to the following method. […] From the amount of the formed glucose, the amount of the enzyme necessitated to phosphorolyze 1 μmol of maltose in one minute is calculated, and was assumed to be 1 unit.
readout.label: Relative activity (%)
Numeric answer only, unit % assumed.

| molecule | subject.of.test | unit.name | Relative activity (%) |
| --- | --- | --- | --- |
| [Ca+2].[Cl-].[Cl-] [CaCl2] | heat resistant maltose phosphorylase (Bacillus sp. RK-1) | % | 101 |
| [Ba+2].[OH-].[OH-] [Ba (OH)2] | heat resistant maltose phosphorylase (Bacillus sp. RK-1) | % | 100 |
| O=S(=O)([O-])[O-].[Cu+2] [CuSO4] | heat resistant maltose phosphorylase (Bacillus sp. RK-1) | % | 91 |
| O=S(=O)([O-])[O-].[Mn+2] [MnSO4] | heat resistant maltose phosphorylase (Bacillus sp. RK-1) | % | 111 |

Would you kindly share the measured Relative activity (%) for O=S(=O)([O-])[O-].[Zn+2] [ZnSO4] ? 63

Would you kindly share the measured Relative activity (%) for [Cl][Hg][Cl] [HgCl2] ? 1

Would you kindly share the measured Relative activity (%) for CC(=O)[O-].CC(=O)[O-].[Pb+2] [Pb (CH3 COO)2] ? 99

Would you kindly share the measured Relative activity (%) for O=C(O)c1cc[c]([Hg][Cl])cc1 [PCMB, p (Chloromercuri) benzoic acid] ? 20

Would you kindly share the measured Relative activity (%) for [Cl-].[Cl-].[Mg+2] [MgCl2] ? 100

Would you kindly share the measured Relative activity (%) for [Cl][Fe][Cl] [FeCl2] ? 94
